Each recorded value in this set is attributed to ChEMBL document CHEMBL5096224.

target: Histone deacetylase 8 (Homo sapiens, UniProt Q9BY41); test: Inhibition of full length C-terminal his-tagged human recombinant HDAC8 expressed in Sf9 insect cells
Sequence (Q9BY41 whole entry): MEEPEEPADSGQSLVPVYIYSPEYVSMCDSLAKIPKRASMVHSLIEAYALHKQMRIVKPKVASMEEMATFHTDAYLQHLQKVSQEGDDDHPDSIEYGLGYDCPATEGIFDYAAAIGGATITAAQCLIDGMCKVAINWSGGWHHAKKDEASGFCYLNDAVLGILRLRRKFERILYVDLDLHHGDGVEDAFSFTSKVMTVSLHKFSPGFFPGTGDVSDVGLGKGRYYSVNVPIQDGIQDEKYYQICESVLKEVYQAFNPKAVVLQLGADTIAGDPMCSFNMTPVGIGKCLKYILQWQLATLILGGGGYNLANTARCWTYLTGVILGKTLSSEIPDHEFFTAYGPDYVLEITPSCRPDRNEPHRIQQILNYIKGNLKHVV
pIC50: −log10 of the molar value.
Returns label 1 if the recorded pIC50 is greater than or equal to 6, and label 0 otherwise.

// below: answered compounds
smiles_structure: C#Cc1nc(C(=O)NCCCCCCC(=O)NO)cs1
study_target: Histone deacetylase 8 (Homo sapiens, UniProt Q9BY41)
class_label: label 1
--
smiles_structure: C#Cc1nc(/C=C\CCCCCC(=O)NO)cs1
study_target: Histone deacetylase 8 (Homo sapiens, UniProt Q9BY41)
class_label: label 1
--
smiles_structure: C#Cc1nc(/C=C/C(=O)NO)cs1
study_target: Histone deacetylase 8 (Homo sapiens, UniProt Q9BY41)
class_label: label 0

For this compound, is measured pIC50 6 or higher? C#Cc1nc(/C=C/CCCCCC(=O)NO)cs1
label 1

---

target: Histone deacetylase 3 (Homo sapiens); experiment: Inhibition of full length C-terminal his6/FLAG-tagged human recombinant HDAC3 ([…]) expressed in Sf9 insect cells
Sequence (O15379 whole entry): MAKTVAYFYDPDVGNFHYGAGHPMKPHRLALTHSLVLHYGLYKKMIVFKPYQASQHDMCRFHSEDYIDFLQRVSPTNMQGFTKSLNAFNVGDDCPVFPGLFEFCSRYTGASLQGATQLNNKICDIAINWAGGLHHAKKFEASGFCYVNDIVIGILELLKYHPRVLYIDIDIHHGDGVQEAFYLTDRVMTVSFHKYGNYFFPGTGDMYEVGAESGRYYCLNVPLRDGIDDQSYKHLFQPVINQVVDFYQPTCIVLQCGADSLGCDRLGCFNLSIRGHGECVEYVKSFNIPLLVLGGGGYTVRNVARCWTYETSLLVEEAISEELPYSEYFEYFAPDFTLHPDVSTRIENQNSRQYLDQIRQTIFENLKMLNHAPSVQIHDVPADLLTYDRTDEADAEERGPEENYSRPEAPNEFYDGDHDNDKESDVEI
parameter: IC50 (nM)
Response body: numeric value in nM, unit text excluded.

So the reported IC50 for C#Cc1nc(/C=C/C=C/C(=O)NO)cs1 , on Histone deacetylase 3 (Homo sapiens), turned out to be 3100

# IC50 measured on Histone deacetylase 3 (Homo sapiens) for item C#Cc1nc(C(=O)NCCCCCCC(=O)NO)cs1 = 50

Value (IC50, Histone deacetylase 3 (Homo sapiens)) for record C#Cc1nc(/C=C/CCCCCC(=O)NO)cs1 = 91

The compound C#Cc1nc(/C=C/C(=O)NO)cs1 , tested on Histone deacetylase 3 (Homo sapiens), showed IC50 of 1100

IC50 on Histone deacetylase 3 (Homo sapiens) for C#Cc1nc(/C=C\CCCCCC(=O)NO)cs1 is 300

---

Target: Protein deacetylase HDAC6 (Homo sapiens, UniProt Q9UBN7)
Sequence (Q9UBN7 whole entry): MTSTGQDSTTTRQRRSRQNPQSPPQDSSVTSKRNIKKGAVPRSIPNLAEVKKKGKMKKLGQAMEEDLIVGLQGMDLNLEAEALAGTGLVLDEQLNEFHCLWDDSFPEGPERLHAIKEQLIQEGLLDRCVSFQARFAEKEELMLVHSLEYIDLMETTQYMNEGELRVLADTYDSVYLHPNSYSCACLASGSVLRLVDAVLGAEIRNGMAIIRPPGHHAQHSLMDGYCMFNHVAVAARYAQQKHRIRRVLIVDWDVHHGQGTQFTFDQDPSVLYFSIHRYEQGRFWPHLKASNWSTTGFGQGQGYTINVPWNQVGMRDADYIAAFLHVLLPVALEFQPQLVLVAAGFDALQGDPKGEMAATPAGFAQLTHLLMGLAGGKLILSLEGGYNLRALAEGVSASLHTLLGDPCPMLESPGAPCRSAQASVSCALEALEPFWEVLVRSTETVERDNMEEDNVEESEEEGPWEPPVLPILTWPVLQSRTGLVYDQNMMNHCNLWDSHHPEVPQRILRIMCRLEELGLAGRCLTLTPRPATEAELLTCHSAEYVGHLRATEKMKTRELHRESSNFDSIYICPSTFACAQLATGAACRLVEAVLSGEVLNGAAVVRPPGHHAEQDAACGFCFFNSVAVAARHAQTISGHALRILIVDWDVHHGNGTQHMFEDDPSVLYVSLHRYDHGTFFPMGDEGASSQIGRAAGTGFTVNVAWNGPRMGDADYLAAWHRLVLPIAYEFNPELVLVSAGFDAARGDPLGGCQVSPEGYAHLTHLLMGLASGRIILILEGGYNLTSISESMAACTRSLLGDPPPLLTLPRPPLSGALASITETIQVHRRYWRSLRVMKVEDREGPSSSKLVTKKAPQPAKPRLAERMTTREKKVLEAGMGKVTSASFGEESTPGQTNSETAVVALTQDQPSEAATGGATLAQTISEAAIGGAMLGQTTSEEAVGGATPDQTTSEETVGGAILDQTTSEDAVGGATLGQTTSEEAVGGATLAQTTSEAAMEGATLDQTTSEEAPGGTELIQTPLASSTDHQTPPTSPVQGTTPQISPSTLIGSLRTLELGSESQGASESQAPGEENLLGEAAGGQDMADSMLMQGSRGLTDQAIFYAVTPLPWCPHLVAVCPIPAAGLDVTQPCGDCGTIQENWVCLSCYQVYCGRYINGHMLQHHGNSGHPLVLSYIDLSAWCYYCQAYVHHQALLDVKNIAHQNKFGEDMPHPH
Test: Inhibition of full length C-terminal FLAG-tagged human recombinant HDAC6 expressed inSf9 insect cells
parameter: IC50 (µM)
Supply the numeric figure in µM, leaving out any unit text.

smiles_structure: C#Cc1nc(C(=O)NCCCCCCC(=O)NO)cs1
parameter: IC50
observed_result: 0.001

Record C#Cc1nc(/C=C/CCCCCC(=O)NO)cs1 , field IC50: 0.01

Lab note: measured IC50 of C#Cc1nc(/C=C/C(=O)NO)cs1 was 0.16

Record C#Cc1nc(/C=C\CCCCCC(=O)NO)cs1 , field IC50: 0.025

For C#Cc1nc(/C=C/C=C/C(=O)NO)cs1 the molecule record lists IC50 as 0.16

---

Quick list: IC50 per entry.
target: Histone deacetylase 1 (Homo sapiens, UniProt Q13547); test: Inhibition of full length his6/FLAG-tagged human recombinant HDAC1(1 to 482 residues) expressed in Sf9 insect cells
Sequence (Q13547 whole entry, the tested form may be a part): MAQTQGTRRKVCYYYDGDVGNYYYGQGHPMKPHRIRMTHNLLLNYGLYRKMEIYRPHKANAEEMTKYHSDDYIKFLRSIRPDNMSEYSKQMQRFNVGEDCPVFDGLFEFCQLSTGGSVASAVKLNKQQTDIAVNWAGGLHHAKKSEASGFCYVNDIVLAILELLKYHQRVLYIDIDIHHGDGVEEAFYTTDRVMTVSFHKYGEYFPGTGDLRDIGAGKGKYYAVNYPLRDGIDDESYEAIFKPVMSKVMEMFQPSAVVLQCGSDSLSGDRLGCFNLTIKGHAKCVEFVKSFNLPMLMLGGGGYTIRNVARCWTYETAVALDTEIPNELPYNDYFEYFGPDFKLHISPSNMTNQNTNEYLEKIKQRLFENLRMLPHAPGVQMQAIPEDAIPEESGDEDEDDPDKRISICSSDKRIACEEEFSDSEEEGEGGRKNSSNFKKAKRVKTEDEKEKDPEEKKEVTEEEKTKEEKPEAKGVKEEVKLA
// note: answer is a bare numeric in µM

# IC50 of C#Cc1nc(/C=C\CCCCCC(=O)NO)cs1 = 0.13

For record C#Cc1nc(/C=C/C(=O)NO)cs1 the listed IC50 is 0.89

The reported IC50 of the compound C#Cc1nc(/C=C/C=C/C(=O)NO)cs1 was 1

Recorded IC50 (compound C#Cc1nc(/C=C/CCCCCC(=O)NO)cs1 ): 0.072

The reported value for C#Cc1nc(C(=O)NCCCCCCC(=O)NO)cs1 in terms of IC50 is 0.067

---

// UniProtKB Q92769 IC50 records
Sequence (Q92769 whole entry): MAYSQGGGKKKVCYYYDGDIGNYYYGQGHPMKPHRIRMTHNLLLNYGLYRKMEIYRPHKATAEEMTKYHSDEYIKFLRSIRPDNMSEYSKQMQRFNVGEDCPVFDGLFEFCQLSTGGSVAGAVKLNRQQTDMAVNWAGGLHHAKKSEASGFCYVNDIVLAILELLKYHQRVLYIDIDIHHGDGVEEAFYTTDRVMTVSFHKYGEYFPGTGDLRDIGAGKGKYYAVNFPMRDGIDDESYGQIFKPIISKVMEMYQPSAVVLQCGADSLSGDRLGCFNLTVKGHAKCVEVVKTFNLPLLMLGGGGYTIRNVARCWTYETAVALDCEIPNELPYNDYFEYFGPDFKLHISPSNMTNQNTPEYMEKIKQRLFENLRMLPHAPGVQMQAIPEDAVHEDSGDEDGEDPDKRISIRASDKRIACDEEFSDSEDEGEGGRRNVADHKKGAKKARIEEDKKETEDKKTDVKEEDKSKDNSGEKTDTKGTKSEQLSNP
Report the figure along with its unit, number first.

The cases that follow already have their IC50 on record.
smiles_structure: C#Cc1nc(/C=C/C=C/C(=O)NO)cs1
study_target: UniProtKB Q92769
IC50: 1200 nM
--
smiles_structure: C#Cc1nc(C(=O)NCCCCCCC(=O)NO)cs1
study_target: UniProtKB Q92769
IC50: 93 nM

Now consider a different compound.
IC50 of C#Cc1nc(/C=C/C(=O)NO)cs1 , assay on UniProtKB Q92769, is 1700 nM

---

molecular target: Histone deacetylase 4 (Homo sapiens, UniProt P56524); assay: Inhibition of […] N-terminal GST/C-terminal his-tagged human recombinant HDAC4 (627 to 1084 residues) expressed in Sf9 insect cells
Sequence (P56524 whole entry, the tested form may be a part): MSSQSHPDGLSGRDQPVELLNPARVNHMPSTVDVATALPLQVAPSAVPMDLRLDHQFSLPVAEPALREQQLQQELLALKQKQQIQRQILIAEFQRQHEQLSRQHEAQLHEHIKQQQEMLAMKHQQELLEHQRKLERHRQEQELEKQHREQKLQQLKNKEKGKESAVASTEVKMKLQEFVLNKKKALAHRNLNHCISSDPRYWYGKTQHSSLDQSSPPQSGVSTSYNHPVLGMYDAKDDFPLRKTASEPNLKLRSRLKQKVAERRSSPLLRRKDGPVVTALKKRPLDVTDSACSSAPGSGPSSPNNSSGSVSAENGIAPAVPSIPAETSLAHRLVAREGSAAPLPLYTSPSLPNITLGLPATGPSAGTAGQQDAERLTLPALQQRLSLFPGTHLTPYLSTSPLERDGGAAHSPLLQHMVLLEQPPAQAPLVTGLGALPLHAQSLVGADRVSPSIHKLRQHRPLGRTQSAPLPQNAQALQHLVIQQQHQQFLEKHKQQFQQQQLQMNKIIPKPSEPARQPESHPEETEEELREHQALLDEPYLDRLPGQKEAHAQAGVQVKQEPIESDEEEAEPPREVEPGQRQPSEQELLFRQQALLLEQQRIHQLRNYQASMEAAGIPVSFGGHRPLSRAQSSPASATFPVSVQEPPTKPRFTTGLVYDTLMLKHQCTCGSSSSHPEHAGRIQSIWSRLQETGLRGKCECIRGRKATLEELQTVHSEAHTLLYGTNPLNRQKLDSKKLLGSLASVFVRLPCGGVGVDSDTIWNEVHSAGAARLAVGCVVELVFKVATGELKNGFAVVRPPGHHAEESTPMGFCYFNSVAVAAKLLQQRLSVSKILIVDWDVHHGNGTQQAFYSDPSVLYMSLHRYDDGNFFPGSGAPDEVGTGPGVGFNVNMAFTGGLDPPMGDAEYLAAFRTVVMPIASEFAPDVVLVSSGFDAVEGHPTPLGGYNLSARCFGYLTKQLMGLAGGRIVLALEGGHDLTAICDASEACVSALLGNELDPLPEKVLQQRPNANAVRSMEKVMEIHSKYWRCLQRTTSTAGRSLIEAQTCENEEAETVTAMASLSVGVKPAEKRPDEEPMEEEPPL
IC50 values for the molecules below.
Numeric only. Scale: µM

smiles_structure: C#Cc1nc(/C=C/C=C/C(=O)NO)cs1
study_target: Histone deacetylase 4 (Homo sapiens, UniProt P56524)
IC50 (µM): 2.1

Now turn to the next molecule.
molecule C#Cc1nc(/C=C/CCCCCC(=O)NO)cs1 , IC50 observed: 8.6
